# run-description: MTT cell proliferation assay, fibroblasts
# Assay type: cell-based, human
# details: human, 300 μM, MTT, 72 h, read-out: fibroblast proliferation rate after 72 hours
Peptide text beside a SMILES is read from it.
outcome-measure: viability at 72 h, 300 µM (%)

- CCCCCCCCCCCCCCCC(=O)N[C@@H](Cc1ccc(O)cc1)C(=O)N[C@@H](CCCNC(=N)N)C(=O)N[C@@H](CO)C(=O)N[C@@H](CCCNC(=N)N)C(=O)N[C@@H](CCCCN)C(=O)N[C@H](Cc1ccc(O)cc1)C(=O)N[C@@H](CO)C(=O)N[C@@H](CO)C(=O)N[C@@H](Cc1c[nH]c2ccccc12)C(=O)N[C@@H](Cc1ccc(O)cc1)C(N)=O [P4B, Palmitoyl-YRSRK[*Y]SSWY-amide] (HELM PEPTIDE1{[CCCCCCCCCCCCCCCC(=O)[*:2]].Y.R.S.R.K.[dY].S.S.W.Y.[am]}$$$$V2.0): 97
- CCCCCCCCCCCCCCCC(=O)N[C@@H](Cc1ccc(O)cc1)C(=O)N[C@@H](CCCNC(=N)N)C(=O)N[C@@H](CO)C(=O)N[C@@H](CCCNC(=N)N)C(=O)N[C@@H](CCCCN)C(=O)N[C@@H](Cc1ccc(O)cc1)C(=O)N[C@@H](CO)C(=O)N[C@@H](CO)C(=O)N[C@@H](Cc1c[nH]c2ccccc12)C(=O)N[C@@H](Cc1ccc(O)cc1)C(N)=O [P4A, Palmitoyl-YRSRKYSSWY-amide] (HELM PEPTIDE1{[CCCCCCCCCCCCCCCC(=O)[*:2]].Y.R.S.R.K.Y.S.S.W.Y.[am]}$$$$V2.0): 97

* * *

# run-description: MTT cell proliferation assay, fibroblasts
# Assay type: cell-based, human
# details: human, 500 μM, MTT, 72 h, read-out: fibroblast proliferation rate after 72 hours
Ends that are not written are not given here.
outcome-measure: viability at 72 h, 500 µM (%)

• Ac-YRSRKYSSWY-NH2 [P4C, Acetyl-YRSRKYSSWY-amide] = 96
• YRSRKYSSWY [decapeptide-12, YRSRKYSSWY] = 97

* * *

Listed here: items and their measured viability at 168 h, 30 µM.
# run-description: Trypan blue cell viability, 7 days, fibroblasts
# Type: cell-based
# details: human, 30 μM, relative to control, read-out: fibroblast viability after 7 days
# Experimental: The effect of each of the decapeptides upon cell viability was also tested. In particular, cells were incubated with the decapeptide at various concentrations and then counted for viability relative to the control (untreated cells) using trypan blue. Cytotoxicity was measured according to the following formula: [1−(# of cells in control−# of live cells in test sample)/# of cells in control]×100 percent.
Peptide text beside a SMILES is read from it.
outcome-measure: viability at 168 h, 30 µM (%)

• CCCCCCCCCCCCCCCC(=O)N[C@@H](Cc1ccc(O)cc1)C(=O)N[C@@H](CCCNC(=N)N)C(=O)N[C@@H](CO)C(=O)N[C@@H](CCCNC(=N)N)C(=O)N[C@@H](CCCCN)C(=O)N[C@@H](Cc1ccc(O)cc1)C(=O)N[C@@H](CO)C(=O)N[C@@H](CO)C(=O)N[C@@H](Cc1c[nH]c2ccccc12)C(=O)N[C@@H](Cc1ccc(O)cc1)C(N)=O [P4A, Palmitoyl-YRSRKYSSWY-amide] (HELM PEPTIDE1{[CCCCCCCCCCCCCCCC(=O)[*:2]].Y.R.S.R.K.Y.S.S.W.Y.[am]}$$$$V2.0) = 98.4
• CCCCCCCCCCCCCCCC(=O)N[C@@H](Cc1ccc(O)cc1)C(=O)N[C@@H](CCCNC(=N)N)C(=O)N[C@@H](CO)C(=O)N[C@@H](CCCNC(=N)N)C(=O)N[C@@H](CCCCN)C(=O)N[C@H](Cc1ccc(O)cc1)C(=O)N[C@@H](CO)C(=O)N[C@@H](CO)C(=O)N[C@@H](Cc1c[nH]c2ccccc12)C(=O)N[C@@H](Cc1ccc(O)cc1)C(N)=O [P4B, Palmitoyl-YRSRK[*Y]SSWY-amide] (HELM PEPTIDE1{[CCCCCCCCCCCCCCCC(=O)[*:2]].Y.R.S.R.K.[dY].S.S.W.Y.[am]}$$$$V2.0) = 98.3
